measured on: CtermHisTag-mEGFR Wild type (Homo sapiens, UniProt P00533)
Sequence (P00533 whole entry): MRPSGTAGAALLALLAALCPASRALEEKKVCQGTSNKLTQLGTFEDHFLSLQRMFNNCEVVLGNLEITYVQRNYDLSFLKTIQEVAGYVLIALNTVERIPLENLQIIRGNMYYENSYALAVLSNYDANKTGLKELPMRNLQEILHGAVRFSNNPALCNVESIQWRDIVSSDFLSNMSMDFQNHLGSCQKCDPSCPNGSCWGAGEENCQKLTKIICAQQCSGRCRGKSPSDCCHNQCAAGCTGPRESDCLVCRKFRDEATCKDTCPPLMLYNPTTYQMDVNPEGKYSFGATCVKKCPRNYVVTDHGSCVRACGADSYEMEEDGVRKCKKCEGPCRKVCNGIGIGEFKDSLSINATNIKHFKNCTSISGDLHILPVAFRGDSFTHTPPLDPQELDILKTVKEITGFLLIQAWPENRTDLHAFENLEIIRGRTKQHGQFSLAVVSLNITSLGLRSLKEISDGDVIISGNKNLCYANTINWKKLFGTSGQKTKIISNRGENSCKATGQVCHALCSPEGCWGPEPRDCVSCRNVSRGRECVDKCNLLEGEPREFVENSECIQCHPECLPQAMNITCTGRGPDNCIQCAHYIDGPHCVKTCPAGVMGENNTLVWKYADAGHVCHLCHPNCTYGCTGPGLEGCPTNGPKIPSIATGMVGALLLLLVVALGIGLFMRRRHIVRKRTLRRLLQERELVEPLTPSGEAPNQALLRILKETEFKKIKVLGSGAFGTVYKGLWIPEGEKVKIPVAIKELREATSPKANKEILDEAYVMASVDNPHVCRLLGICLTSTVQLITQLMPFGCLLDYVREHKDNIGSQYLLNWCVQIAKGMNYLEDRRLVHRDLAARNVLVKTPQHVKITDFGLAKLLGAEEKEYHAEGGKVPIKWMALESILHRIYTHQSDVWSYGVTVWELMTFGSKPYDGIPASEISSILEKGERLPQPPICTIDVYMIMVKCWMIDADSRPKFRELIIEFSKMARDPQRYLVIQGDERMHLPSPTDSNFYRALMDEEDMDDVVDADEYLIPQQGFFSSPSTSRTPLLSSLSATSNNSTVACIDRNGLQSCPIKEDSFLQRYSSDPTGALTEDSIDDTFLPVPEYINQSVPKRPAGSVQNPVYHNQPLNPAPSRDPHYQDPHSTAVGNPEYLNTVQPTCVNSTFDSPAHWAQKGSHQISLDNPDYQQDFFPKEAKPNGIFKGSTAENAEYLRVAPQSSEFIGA
experiment notes: biochemical
pIC50: −log10 of the molar value. Counter-ions that a name gives are not always drawn.
parameter measured: pIC50

As a guide, the following entries are already answered.
Note to self: pIC50 of C#Cc1c(C)c(=O)n2c3nc(ncc13)Nc1ccc(N3CCN(C)CC3)c(c1)OCCCCC2 [Example 229] with CtermHisTag-mEGFR Wild type (Homo sapiens, UniProt P00533) was > 6.00

Entry C#Cc1cc(=O)n(C)c2nc(Nc3ccc(N4CCN(C)CC4)c(NC(C)=O)c3)ncc12 [Example 50] under CtermHisTag-mEGFR Wild type (Homo sapiens, UniProt P00533) had pIC50 of > 6.00

Reported pIC50 (CtermHisTag-mEGFR Wild type (Homo sapiens, UniProt P00533)) for entry C#Cc1cc(=O)n(C)c2nc(Nc3ccc(N4CCN(C)CC4)c(OCCCC4CCCC4)c3)ncc12 [Example 212] is > 6.00

Sample C#Cc1c(-c2ccccc2Cl)c(=O)n(C)c2nc(Nc3ccc(N(C)CCN(C)C)cc3OC)ncc12 [Example 122] , system: CtermHisTag-mEGFR Wild type (Homo sapiens, UniProt P00533). Its pIC50 is > 6.00

Next:
Response field pIC50 (CtermHisTag-mEGFR Wild type (Homo sapiens, UniProt P00533)) for item C#Cc1cc(=O)n(C)c2nc(Nc3ccc(N4CCN(C)CC4)c(OC4CCCC4)c3)ncc12 [Example 215] : > 6.00

Assay CtermHisTag-mEGFR Wild type (Homo sapiens, UniProt P00533), sample C#Cc1cc(=O)n(C)c2nc(Nc3ccc(N4CCN(C)CC4)c(NC(=O)NC4CCCC4)c3)ncc12 [Example 219] , pIC50 read: > 6.00

Value sought: pIC50, system CtermHisTag-mEGFR Wild type (Homo sapiens, UniProt P00533), item C#Cc1cc(=O)n(C)c2nc(Nc3ccc(OCCN(C)C)cc3)ncc12 [Example 46] . Result: 5.00 to 6.00

The reported pIC50 value, CtermHisTag-mEGFR Wild type (Homo sapiens, UniProt P00533), for C#Cc1cc(=O)n(C)c2nc(Nc3ccc(N(C)CCN(C)C)cc3OC)ncc12 [Example 42] reads 5.00 to 6.00

C#Cc1cc(=O)[nH]c2nc(Nc3ccccc3OC)ncc12 [Example 120] on CtermHisTag-mEGFR Wild type (Homo sapiens, UniProt P00533) gives pIC50 = 5.00 to 6.00

The molecule C#Cc1cc(=O)n([C@@H]2CCCN(C(=O)CC)C2)c2nc(Nc3ccc(N(C)CCN(C)C)cc3)ncc12 [Example 77, trifluoroacetic acid salt] , tested on CtermHisTag-mEGFR Wild type (Homo sapiens, UniProt P00533), showed pIC50 of < 5.00

Log: CtermHisTag-mEGFR Wild type (Homo sapiens, UniProt P00533), molecule C#Cc1cc(=O)n(C2CCOC2)c2nc(Nc3ccc(N4CCN(C)CC4)cc3)ncc12 (stereo not shown) [Example 105] , pIC50 = < 5.00
